assay method text: Sulforhodamine B (SRB) assay, HPDE
Format: cell-based, human
measurement setup: human; HPDE nontransformed cells, SRB, 72 h; read-out: Cytotoxicity IC50 ± SD
reported endpoint: IC50 at 72 h (µM)

In [3]: df
Out[3]:
                                     smiles  result_units  reported_value
0  CN(C)C(=S)N/N=C1\C(=O)N(CCCCN2CCC3(CC2)OCc2ccccc23)c2ccccc21            µM            8.07

----------
experimental system: σ2 receptor (Rattus norvegicus)
Sequence (Q5U3Y7 whole entry): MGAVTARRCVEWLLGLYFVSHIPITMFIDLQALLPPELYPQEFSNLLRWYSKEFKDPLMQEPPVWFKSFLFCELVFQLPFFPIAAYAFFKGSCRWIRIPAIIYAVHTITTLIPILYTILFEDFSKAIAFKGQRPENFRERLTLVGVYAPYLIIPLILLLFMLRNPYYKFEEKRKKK
reported endpoint: Ki

                                     smiles  reported_endpoint  reported_value
0  c1ccc2c(c1)COC21CCN(CCCCn2ccc3ccccc32)CC1                 Ki         0.43 nM

----------
experimental system: UniProt:Q60492
Sequence (Q60492 whole entry): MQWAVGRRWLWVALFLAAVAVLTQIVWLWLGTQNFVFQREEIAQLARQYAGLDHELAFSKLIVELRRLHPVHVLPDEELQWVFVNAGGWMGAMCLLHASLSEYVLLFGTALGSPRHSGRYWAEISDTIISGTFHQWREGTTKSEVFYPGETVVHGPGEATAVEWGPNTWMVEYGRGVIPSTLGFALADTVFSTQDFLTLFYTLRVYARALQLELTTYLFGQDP
assay method text: σ1 receptor radioligand binding assay
measurement setup: mean of n ≥ 3 separate experiments in duplicate, read-out: Ki ± SD σ1
Protocol: The compounds underwent radioligand binding assays on σ1 and σ2 receptors, according to the previously adopted protocols. σ1 and σ2 receptor binding were carried out following Matsumoto et al.. […] All the procedures for the binding assays were described previously by Abate and collaborators.
pKi: −log10 of the molar value.
reported endpoint: pKi

In [3]: df
Out[3]:
                                   compound  reported_value
0  c1ccc2c(c1)COC21CCN(CCCCn2ccc3ccccc32)CC1 [MT8]            7.56

----------
assay method text: Sulforhodamine B (SRB) assay, Hs27
Format: cell-based, human
measurement setup: human, normal skin fibroblast Hs27 cells; Hs27 nontransformed cells, SRB, 72 h; read-out: Cytotoxicity IC50 ± SD
reported endpoint: IC50 at 72 h (µM)

>>> df
                                     smiles  reported_endpoint  reported_value
0  CN(C)C(=S)N/N=C1\C(=O)N(CCCCN2CCC3(CC2)OCc2ccccc23)c2ccccc21       IC50 at 72 h            5.55
